Molecular target: Nrg2 (UniProt P38082)
Sequence: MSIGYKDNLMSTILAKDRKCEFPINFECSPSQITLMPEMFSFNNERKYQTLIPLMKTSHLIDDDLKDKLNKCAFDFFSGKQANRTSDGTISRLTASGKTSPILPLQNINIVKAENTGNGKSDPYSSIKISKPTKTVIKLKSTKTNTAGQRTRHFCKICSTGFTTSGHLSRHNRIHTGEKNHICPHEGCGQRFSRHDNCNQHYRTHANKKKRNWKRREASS
Assay: PBM E-score (8-mer binding enrichment) (E-score (-0.5 to 0.5)); higher = stronger / more preferred TF binding
Conditions: protein concentration: 100 nM; construct: GST-full length
In all, about 33,000 sequences were measured (“E-score (-0.5 to 0.5)”: median about -8e-05, highest 2% from about 0.23 on). The full list was thinned out, with the highest values kept by preference.
Quantity name: PBM E-score

Residues | Value observed
ATCATAAG | -0.085
AACTACAT | -0.038
AAACCGAT | -0.137
AACTTATC | 0.121
AACATAAG | 0.246
ATCAGTAA | 0.0691
ATTATCGC | 0.254
ATTATCGA | -0.00721
CAGCTCAC | -0.161
AACATAAC | 0.134
ATTATCGG | -0.142
